Target: KRas G12R (Homo sapiens, UniProt P01116, G12R);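 note: TR-FRET displacement assay of compound binding to KRas, read after one hour at room temperature, potency from a four-parameter fit of percent-of-control values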
Sequence (P01116 1-169 isoform P01116-2 G12R): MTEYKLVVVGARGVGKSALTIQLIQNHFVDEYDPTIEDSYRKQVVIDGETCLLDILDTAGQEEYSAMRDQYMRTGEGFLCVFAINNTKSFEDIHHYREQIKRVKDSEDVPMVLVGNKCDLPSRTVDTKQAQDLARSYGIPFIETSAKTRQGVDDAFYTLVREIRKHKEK
Reported property: IC50

### Prompt For the compound CCc1c(F)ccc2cc(O)cc(-c3ncc4c(N5C[C@H](O)C[C@@H](O)C5)nc(OC[C@@]56CCCN5C[C@H](F)C6)nc4c3F)c12 , what IC50 is on record?
### Response ≤ 2 nM

----------
Measured pIC50 values are reported for all entries that follow.
Target: KRas G12D (Homo sapiens, UniProt P01116, G12D);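 note: TR-FRET displacement binding assay on KRas, read after a one-hour incubation at room temperature, IC50 fitted from percent-of-control values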
Sequence (P01116 1-169 isoform P01116-2 G12D): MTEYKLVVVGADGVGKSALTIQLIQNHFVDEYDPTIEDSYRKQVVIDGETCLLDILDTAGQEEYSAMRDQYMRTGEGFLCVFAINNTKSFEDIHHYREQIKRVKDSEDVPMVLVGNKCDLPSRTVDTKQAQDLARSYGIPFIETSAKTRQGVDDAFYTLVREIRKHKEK
Test: biochemical
pIC50 field: float, defined as -log10 of concentration (mol/L).

For orientation, consider the following solved cases.
Compound	Assay system	Reported property	Obs value
CCc1cccc2cccc(-c3ncc4c(N5CCCC(C)(O)C5)nc(OCC56CCCN5CCC6)nc4c3F)c12 (stereo not drawn)	KRas G12D (Homo sapiens, UniProt P01116, G12D)	pIC50	6.79
CCc1c(F)ccc2cc(O)cc(-c3ncc4c(N5CC[C@H](C)[C@@H](O)C5)nc(OC[C@@]56CCCN5C[C@H](F)C6)nc4c3F)c12	KRas G12D (Homo sapiens, UniProt P01116, G12D)	pIC50	7.32

### Prompt // pIC50 lookup, key: O=C1CC2(CCCN(c3nc(OCC45CCCN4CCC5)nc4c(F)c(-c5cccc6cccc(CO)c56)ncc34)C2)N1 (stereo not drawn)
### Response 5.06

### Prompt Same question, CCc1cccc2cccc(-c3ncc4c(NCc5c[nH]c6ncccc56)nc(OCC56CCCN5CCC6)nc4c3F)c12 this time
### Response 6.51

----------
Tested on: pERK in MKN1 cells
Assay: Inhibition of KRas phosphorylation of ERK (Cisbio HTRF pERK assay)
Settings: Homo sapiens, MKN-1, 3 h, read-out: Inhibition (HTRF IC50) of KRas-mediated Phosphorylation of ERK, MKN1
Reported property: pIC50
Answer as the number alone; pIC50 is minus log10 of concentration in mol/L.

Some entries whose results are on file:
Compound	Obs value
CCc1c(F)ccc2cc(O)cc(-c3ncc4c(N5CCC[C@@](C)(O)C5)nc(OC[C@@H]5CCCN5C)nc4c3F)c12	7.68
CCc1c(F)ccc2cc(O)cc(-c3ncc4c(N5CC6C(=O)NC(=O)C6C5)nc(OC[C@@]56CCCN5C[C@H](F)C6)nc4c3F)c12 (stereo partly drawn)	7.64
O=C1NC(=O)[C@]2(CCCN(c3nc(OC[C@@]45CCCN4C[C@H](F)C5)nc4c(F)c(-c5cc(O)cc6ccc(F)c(Cl)c56)ncc34)C2)N1	7.48
CCc1c(F)ccc2cc(O)cc(-c3ncc4c(NCC5CNC(=O)N5)nc(OC[C@@]56CCCN5C[C@H](F)C6)nc4c3F)c12 (stereo partly drawn)	6.48

### Prompt Report pIC50 for CCc1c(F)ccc2cc(O)cc(-c3ncc4c(N5CCC(F)(F)C(O)C5)nc(OC[C@@]56CCCN5C[C@H](F)C6)nc4c3F)c12 (stereo partly drawn) please.
### Response 7.82

### Prompt Same question, CCc1c(F)ccc2cc(O)cc(-c3ncc4c(N5CCOCC6(COC6)C5)nc(OC[C@@]56CCCN5C[C@H](F)C6)nc4c3F)c12 this time
### Response 8.22

----------
Test system: pERK in HCT116 cells
Experiment: Inhibition of KRas phosphorylation of ERK (Cisbio HTRF pERK assay)
Details: Homo sapiens, HCT-116, read-out: Inhibition (HTRF IC50) of KRas-mediated Phosphorylation of ERK, HCT116
Reported property: IC50 (µM)
Answer in µM, number only, no unit symbol.

Known results for molecules:
Molecule	Reported property	Obs value
Oc1cc(-c2ncc3c(N4CC5CC(O)CC4C5)nc(OC[C@@]45CCCN4C[C@H](F)C5)nc3c2F)c2c(Cl)c(F)ccc2c1 (stereo partly shown)	IC50	0.539
C#Cc1c(F)ccc2cc(O)cc(-c3ncc4c(N5CCCC6(CNC6=O)C5)nc(OC[C@@]56CCCN5C[C@H](F)C6)nc4c3F)c12 (stereo partly shown)	IC50	2.25
CCc1c(F)ccc2cc(O)cc(-c3ncc4c(N5CCC[C@@](C)(O)C5)nc(OC[C@]56CCCN5[C@H](COC(=O)N(C)C)CC6)nc4c3F)c12	IC50	0.042
CCc1c(F)ccc2cc(O)cc(-c3ncc4c(N5CCCn6nc(C(=O)N(C)CC)cc6C5)nc(OC[C@@]56CCCN5C[C@H](F)C6)nc4c3F)c12	IC50	0.167
CN(C)C(=O)c1cc2n(n1)CCCN(c1nc(OC[C@@]34CCCN3C[C@H](F)C4)nc3c(F)c(-c4cc(O)cc5ccc(F)c(Br)c45)ncc13)C2	IC50	0.586

### Prompt Param item = CCc1c(F)ccc2cc(O)cc(-c3ncc4c(N5CCCn6nc(N)cc6C5)nc(OC[C@@]56CCCN5C[C@H](F)C6)nc4c3F)c12 ; retrieve measured IC50.
### Response 1.64

### Prompt Next: CCc1c(F)ccc2cc(O)cc(-c3ncc4c(N5CCCC6(C5)NC(=O)NC6=O)nc(OCC5(CN(C)C)CC5)nc4c3F)c12 (stereo not shown)
### Response 0.576

### Prompt Try the molecule CCc1c(F)ccc2cc(O)cc(-c3ncc4c(N5CCN6C(=O)NC(=O)C6C5)nc(OC[C@@]56CCCN5C[C@H](F)C6)nc4c3F)c12 (stereo partly shown)
### Response 0.741

### Prompt Now the molecule C#Cc1c(F)ccc2cc(O)cc(-c3ncc4c(N5CCOCC(CO)C5)nc(OC[C@@]56CCCN5C[C@H](F)C6)nc4c3F)c12 (stereo partly shown)
### Response 0.563
